Hello, the source for this data is ChEMBL document CHEMBL2010677, in case you need it.

assay.notes: Transactivation of PPAR expressed in HepG2 cells after 20 hrs by luminescence assay
Format: cell-based
recorded.conditions: HepG2, 20 h
Here, each record is paired with measured pEC50 data.
Quick note: pEC50 means taking -log10 of the concentration in moles per liter.

compound	pEC50
C/C=C\CC/C=C/C=C/C(=O)NCC(C)C	5.70

Query CC(C)(Oc1ccc(CCNC(=O)c2ccc(Cl)cc2)cc1)C(=O)O [BEZAFIBRATE] yields pEC50 of 5.98

Query COc1cc([C@@H]2OC[C@@H]3[C@H]2CO[C@H]3c2ccc3c(c2)OCO3)ccc1O yields pEC50 of 4.68

Query CC(C)(O)C1=C[C@@H](O)[C@@](C)(O)CC1 yields pEC50 of 5.37

====

study.system: Peroxisome proliferator-activated receptor gamma (Homo sapiens)
Sequence (P37231 whole entry, the tested form may be a part): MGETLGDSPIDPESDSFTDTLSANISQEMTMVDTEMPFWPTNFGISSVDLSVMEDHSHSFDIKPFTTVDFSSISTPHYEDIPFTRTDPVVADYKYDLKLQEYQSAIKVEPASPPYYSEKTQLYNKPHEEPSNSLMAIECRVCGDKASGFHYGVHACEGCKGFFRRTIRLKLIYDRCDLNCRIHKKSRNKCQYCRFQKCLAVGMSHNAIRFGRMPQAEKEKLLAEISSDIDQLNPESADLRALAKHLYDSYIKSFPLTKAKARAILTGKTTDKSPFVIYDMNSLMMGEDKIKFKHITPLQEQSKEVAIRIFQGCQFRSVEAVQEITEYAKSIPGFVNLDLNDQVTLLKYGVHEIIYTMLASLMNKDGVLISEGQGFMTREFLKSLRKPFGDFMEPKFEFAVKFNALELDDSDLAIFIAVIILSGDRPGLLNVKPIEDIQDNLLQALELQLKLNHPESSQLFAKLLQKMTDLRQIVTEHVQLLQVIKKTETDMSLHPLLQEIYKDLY
assay.notes: Transactivation of GAL4-fused PPARgamma LBD expressed in HepG2 cells after 20 hrs by luminescence assay
measured.quantity: pEC50
Quick note: pEC50 means taking -log10 of the concentration in moles per liter.

Recorded results for 3 compounds are shown here.
COc1cc([C@H]2OC[C@@H]3[C@H]2CO[C@H]3c2ccc3c(c2)OCO3)ccc1O 4.31
CC(C)(O)C1=C[C@@H](O)[C@@](C)(O)CC1 4.66
COc1cc([C@@H]2OC[C@@H]3[C@H]2CO[C@H]3c2ccc3c(c2)OCO3)ccc1O 4.72

Query C/C=C\CC/C=C/C=C/C(=O)NCC(C)C yields pEC50 of 5.44

Query COc1cc([C@H]2OC[C@H]3[C@@H]2CO[C@H]3c2ccc3c(c2)OCO3)cc(OC)c1O yields pEC50 of 4.65

Query CC=C/C=C\CC/C=C/C=C/C(=O)NCC(C)C yields pEC50 of 4.28

Query COc1ccc([C@@H](O)[C@H](O)CO)cc1OC yields pEC50 of 4.71

Query C=CCc1ccc(OC)c(OC)c1 yields pEC50 of 4.40

Query COc1cc([C@H]2OC[C@H]3[C@@H]2CO[C@H]3c2ccc(O)c(OC)c2)ccc1O yields pEC50 of 4.23

====

study.system: Peroxisome proliferator-activated receptor delta (Homo sapiens)
Sequence (Q03181 whole entry, the tested form may be a part): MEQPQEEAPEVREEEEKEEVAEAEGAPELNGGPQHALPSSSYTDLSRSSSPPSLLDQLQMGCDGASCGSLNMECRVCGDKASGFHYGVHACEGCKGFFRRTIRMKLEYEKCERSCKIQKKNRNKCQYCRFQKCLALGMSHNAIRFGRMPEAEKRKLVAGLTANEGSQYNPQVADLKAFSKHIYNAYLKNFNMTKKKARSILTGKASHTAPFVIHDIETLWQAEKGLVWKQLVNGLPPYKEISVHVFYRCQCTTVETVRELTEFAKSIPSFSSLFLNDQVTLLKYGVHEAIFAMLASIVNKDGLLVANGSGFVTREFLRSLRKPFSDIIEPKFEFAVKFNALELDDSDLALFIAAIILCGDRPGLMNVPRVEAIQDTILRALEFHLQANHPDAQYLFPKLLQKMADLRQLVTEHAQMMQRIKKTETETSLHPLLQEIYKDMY
assay.notes: Transactivation of GAL4-fused PPARbeta LBD expressed in HepG2 cells after 20 hrs by luminescence assay
Here, each record is paired with measured log10(EC50) data.
Could you please treat all values as log10 of EC50 in µM?

CCCc1c(OCCCOc2ccc(OCC(=O)O)cc2)ccc(C(C)=O)c1O -0.19
COc1cc([C@H]2OC[C@H]3[C@@H]2CO[C@H]3c2ccc3c(c2)OCO3)cc(OC)c1O 1.68
C=CCc1ccc(OC)c(OC)c1 1.70
CC(C)(O)C1=C[C@@H](O)[C@@](C)(O)CC1 1.69
C/C=C\CC/C=C/C=C/C(=O)NCC(C)C 0.69
CC=C/C=C\CC/C=C/C=C/C(=O)NCC(C)C 1.71
COc1ccc([C@@H](O)[C@H](O)CO)cc1OC 1.35
COc1cc([C@H]2OC[C@H]3[C@@H]2CO[C@H]3c2ccc(O)c(OC)c2)ccc1O 1.69

Query COc1cc([C@@H]2OC[C@@H]3[C@H]2CO[C@H]3c2ccc3c(c2)OCO3)ccc1O yields log10(EC50) of 1.53

Query COc1cc([C@H]2OC[C@@H]3[C@H]2CO[C@H]3c2ccc3c(c2)OCO3)ccc1O yields log10(EC50) of 1.73
